# System under test: human GLUT1 (Homo sapiens, UniProt P11166)
# Sequence (P11166 whole entry): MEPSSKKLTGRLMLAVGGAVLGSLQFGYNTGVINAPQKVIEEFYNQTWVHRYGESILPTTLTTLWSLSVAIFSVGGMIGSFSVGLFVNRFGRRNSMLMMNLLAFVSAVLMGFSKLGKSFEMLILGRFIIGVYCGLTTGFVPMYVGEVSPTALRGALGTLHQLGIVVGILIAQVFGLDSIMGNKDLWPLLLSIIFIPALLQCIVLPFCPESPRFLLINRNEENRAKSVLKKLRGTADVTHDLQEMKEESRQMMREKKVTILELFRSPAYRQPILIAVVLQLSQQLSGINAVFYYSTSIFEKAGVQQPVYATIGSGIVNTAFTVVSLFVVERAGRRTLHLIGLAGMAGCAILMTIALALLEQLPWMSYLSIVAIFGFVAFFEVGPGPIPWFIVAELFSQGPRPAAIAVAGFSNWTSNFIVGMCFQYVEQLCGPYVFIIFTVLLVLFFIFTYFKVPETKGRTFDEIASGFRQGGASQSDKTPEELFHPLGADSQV
# Method summary: GLUT1 transport assay
# Assay type: cell-based
# Condition description: 100 μM compound
Measured property: decrease of relative transport activity of GLUT1, primary screen

{"Chemical structure": "O=C(CN1C(=O)S/C(=C/c2ccco2)C1=O)Nc1ccc(Cl)c(Cl)c1", "System under test": "human GLUT1 (Homo sapiens, UniProt P11166)", "Result": "at least 50%"}
{"Chemical structure": "O=C(CN1C(=O)S/C(=C/c2ccco2)C1=O)Nc1nc2ccccc2s1", "System under test": "human GLUT1 (Homo sapiens, UniProt P11166)", "Result": "at least 50%"}
{"Chemical structure": "Cc1cccc2sc(NC(=O)CN3C(=O)S/C(=C/c4ccco4)C3=O)nc12", "System under test": "human GLUT1 (Homo sapiens, UniProt P11166)", "Result": "at least 50%"}

Each recorded value in this set is attributed to paper PMC7451030.
